Assay: qHTS assay for measurement of the activity of small molecule inhibitors on Zika virus induced Caspase-3 activity in human iPSC derived neural progenitor cells (hNPCs) (AID 1224857); also: nearly all actives have a fitted effect of over 65% in size
Conditions: hNPCs ZIKV-induced caspase-3/7, Caspase-Glo luminescence, 6 h; series mostly up to 45.7 µM
Inconclusive results are not listed. Calls of active or inactive are those of the source. Calls follow the shape of the dose curve; as a rule, active = well fitted inhibition curve with a large enough effect; inconclusive = small, poorly fitted or top-dose-only effect; inactive = no such curve, though single readings can be large or run the other way. Positions of bridges follow the written chain, without caps; N, C: chain ends. Non-standard residues stand in square brackets, D forms with d. Residues, ends and D or L forms follow the SMILES beside them. ξ: configuration not given here. *: point of attachment. Octanoyl(6-Me) = CCC(C)CCCCC(=O)*; ξThr(3R) = C[C@@H](O)C(N)C(=O)O; dDab = NCC[C@@H](N)C(=O)O; Dab = NCC[C@H](N)C(=O)O

[
  {
    "molecule": "Cc1cc(-c2nnc3n2CCCCC3)c(C)n1-c1ccccc1",
    "outcome": "inactive"
  },
  {
    "molecule": "CCC(C)CCCCC(=O)N[C@@H](CCN)C(=O)NC(C(=O)N[C@H](CCN)C(=O)N[C@@H]1CCNC(=O)C([C@@H](C)O)NC(=O)[C@@H](CCN)NC(=O)[C@@H](CCN)NC(=O)[C@@H](CC(C)C)NC(=O)[C@H](Cc2ccccc2)NC(=O)[C@H](CCN)NC1=O)[C@@H](C)O (stereo partly drawn) ({Octanoyl(6-Me)}-[Dab][ξThr(3R)][dDab][dDab][Dab]F[dL][dDab][dDab][ξThr(3R)]; lactam 4-C)",
    "outcome": "inactive"
  }
]

---

Test: Quantitative High-Throughput drug screen in 47 multiple myeloma cell lines against the NCATS MIPE library collection: KMS34_JCRB cell viability assay (AID 1918985); also: nearly all actives have a fitted effect of over 40% in size; also: potency is read from the fitted curve at half-maximal effect
Conditions: KMS34 myeloma viability, CellTiter-Glo ATP luminescence, 48 h; series mostly up to 45.8 µM
Inconclusive results are not listed. Calls of active or inactive are those of the source. The call rests on the fitted dose curve; in most records, active means well fitted cell-killing curve with a large enough effect; inconclusive means small, poorly fitted or top-dose-only effect, or effect the other way; inactive means no such curve, though single readings can be large or run the other way.

[
  {
    "compound": "c1cncc(CN2CCC(n3ncc4c(N5CCOCC5)nc(-c5ccc6[nH]ccc6c5)nc43)CC2)c1",
    "Potency": "5900 nM (active)"
  },
  {
    "compound": "CCOc1cc2c(c(F)c1OCC)C(=N)N(CC(=O)c1cc(N3CCOCC3)c(OC)c(C(C)(C)C)c1)C2",
    "Potency": "23500 nM (active)"
  },
  {
    "compound": "COc1cc(OC)c(C=CS(=O)(=O)Cc2ccc(OC)c(NCC(=O)O)c2)c(OC)c1",
    "Potency": "209 nM (active)"
  },
  {
    "compound": "COc1cc2c(cc1OC)[C@@H]1C(=O)c3ccc4c(c3O[C@@H]1CO2)C=CC(C)(C)O4",
    "Potency": "23500 nM (active)"
  },
  {
    "compound": "CC(=O)O[C@@]12CO[C@H]1C[C@H](O)[C@@]1(C)C(=O)[C@H](O)C3=C(C)[C@@H](OC(=O)C(O)[C@@H](NC(=O)OC(C)(C)C)c4ccccc4)C[C@@](O)([C@@H](OC(=O)c4ccccc4)[C@@H]21)C3(C)C (stereo partly specified)",
    "Potency": "inactive"
  },
  {
    "compound": "COc1cccc2c1C(=O)c1c(O)c3c(c(O)c1C2=O)C[C@@](O)(C(=O)CO)C[C@@H]3O[C@H]1C[C@H](N)[C@H](OC2CCCCO2)[C@H](C)O1 (stereo partly specified)",
    "Potency": "2640 nM (active)"
  },
  {
    "compound": "O=C(O)CCCCC(CCSCc1ccccc1)SCc1ccccc1 (stereo unspecified)",
    "Potency": "inactive"
  },
  {
    "compound": "CC(=O)OCC(=O)[C@@]1(O)CC[C@H]2[C@@H]3CCC4=CC(=O)CC[C@]4(C)[C@@H]3C(=O)C[C@@]21C",
    "Potency": "inactive"
  },
  {
    "compound": "CCOC(=O)N1CCN([N+]([O-])=NOc2ccc([N+](=O)[O-])cc2[N+](=O)[O-])CC1",
    "Potency": "935 nM (active)"
  },
  {
    "compound": "CC(C=CC(=O)NO)=C[C@@H](C)C(=O)c1ccc(N(C)C)cc1",
    "Potency": "83.3 nM (active)"
  },
  {
    "compound": "CC[C@]12C=CCN3CC[C@@]4(c5cc([C@@]6(C(=O)OC)C[C@H]7C[C@@H](C(C)(F)F)CN(Cc8c6[nH]c6ccccc86)C7)c(OC)cc5N(C)[C@H]4[C@@](O)(C(=O)OC)[C@H]1OC(C)=O)[C@@H]32",
    "Potency": "5.9 nM (active)"
  },
  {
    "compound": "Cn1cc(-c2cnn3c(N)c(Br)c([C@H]4CCCNC4)nc23)cn1",
    "Potency": "935 nM (active)"
  },
  {
    "compound": "CC(=O)SCC(Cc1ccccc1)C(=O)NCC(=O)OCc1ccccc1 (stereo unspecified)",
    "Potency": "2350 nM (active)"
  },
  {
    "compound": "CCn1c(=O)c2c(nc(C=Cc3ccc(OC)c(OC)c3)n2C)n(CC)c1=O",
    "Potency": "inactive"
  },
  {
    "compound": "NC(=O)c1ncn([C@@H]2O[C@H](CO)[C@@H](O)[C@@H]2O)c1N",
    "Potency": "inactive"
  },
  {
    "compound": "CN(C)CC[C@H](c1ccc(Cl)cc1)c1ccccn1",
    "Potency": "inactive"
  }
]
